So I've got a bunch of compounds here, and I need their CC50 at 72 h values.
assay: Cytotoxicity against human RD cells assessed as reduction in cell growth incubated for 3 days by MTT assay; assay type: toxicity, cell-based; settings: time 3 day
Field format: number, assumed µM, no unit text.

Please report the measured CC50 at 72 h for COc1ccc(F)c(C(=O)Nc2cc(-c3cccs3)ccn2)c1
33.5

Specify measured CC50 at 72 h for COc1ccc(F)c(C(=O)Nc2cncc(-c3cc4ccccc4s3)c2)c1 .
47.3

Identify measured CC50 at 72 h associated with O=C(Nc1cncc(-c2cccs2)c1)c1c(F)cc(F)cc1F
45.3

Give CC50 at 72 h for the following compound: COc1ccc(F)c(C(=O)Nc2cncc(-c3cc(-c4cccnc4)cs3)c2)c1F
20

Please list CC50 at 72 h recorded for the compound COc1cccc(C(=O)Nc2cncc(-c3cc(-c4cccnc4)cs3)c2)c1F
21.3

Name the recorded CC50 at 72 h of the item COc1ccc(F)c(C(=O)Nc2cncc(-c3cc(-c4cn[nH]c4)cs3)c2)c1 in your answer.
19.6

For the compound COc1ccc(F)c(C(=O)Nc2cncc(-c3cccs3)c2)c1 , report CC50 at 72 h.
75.7

Give the measured CC50 at 72 h for COc1ccc(F)c(C(=O)Nc2cncc(-c3cc(-c4cccnc4)cs3)c2)c1
12.8

Name the recorded CC50 at 72 h of the compound listed here: COc1ccc(F)c(C(=O)Nc2cncc(-c3cc(-c4cccnc4C)cs3)c2)c1
15.6

Give the reported CC50 at 72 h for this compound. COc1ccc(F)c(C(=O)Nc2cncc(-c3cc(-c4cnccc4C)cs3)c2)c1
18.1

Annotate the compound COc1cccc(C(=O)Nc2cncc(-c3cccs3)c2)c1F with its measured CC50 at 72 h.
52.8
